Values were extracted from paper PMC5318888.

# method.summary: Cytotoxicity, live cells by flow cytometry, H9 cells
# Format: cell-based
# measurement.setup: human
Assign CC50 at 48 h to each entry below.

Task: Quick check: CC50 at 48 h of "Nc1nc(Cl)nc2c1ncn2[C@@H]1O[C@H](CO)[C@@H](O)[C@@H]1F" ?
Result: 0.031 µM

Task: Quick check: CC50 at 48 h of "Nc1nc(NC2CC2)c2ncn([C@H]3C=C[C@@H](CO)C3)c2n1" ?
Result: > 200 µM

Task: Which CC50 at 48 h is reported for this molecule? "Nc1nc2c(ncn2COCCO)c(=O)[nH]1"
Result: > 200 µM

Task: # get_value(readout='CC50 at 48 h', item= "O=c1[nH]cnc2c1ncn2[C@H]1CC[C@@H](CO)O1" )
Result: > 200 µM

Task: Given the entry Cc1cn([C@H]2C=C[C@@H](CO)O2)c(=O)[nH]c1=O [d4T, 2′,3′-didehydro-2′,3′-dideoxythymidine] , report its measured CC50 at 48 h.
Result: > 200 µM

Task: Look at this molecule and give its reported CC50 at 48 h. "Nc1nc(O)c2ncn(COC(CO)CO)c2n1"
Result: > 200 µM

###

For each record, write down the corresponding CC50 at 48 h.
# method.summary: Cytotoxicity, live cells by flow cytometry, Jurkat cells
# Type: cell-based
# measurement.setup: human; Jurkat cells; read-out: CC50

Task: # input compound: "Cc1ccnc2c1NC(=O)c1cccnc1N2C1CC1" ; wanted: its CC50 at 48 h
Result: > 200 µM

Task: Form field: reported CC50 at 48 h of "Cc1nnc(C(=O)NC(C)(C)c2nc(C(=O)NCc3ccc(F)cc3)c(O)c(=O)n2C)o1"
Result: > 200 µM

###

# System: HIV-1-GFP
# method.summary: microbe, parasite or virus in culture
# Type: cell-based
# measurement.setup: THP-1 PMA+
quantity.name: SI, selectivity index CC50/EC50

Task: Item: Cc1cn([C@H]2C=C[C@@H](CO)O2)c(=O)[nH]c1=O [d4T, 2′,3′-didehydro-2′,3′-dideoxythymidine] Test system: HIV-1-GFP Read-out: SI, selectivity index CC50/EC50 Value: ?
Result: > 51

Task: // map "Nc1nc(O)c2ncn(COC(CO)CO)c2n1" to recorded SI, selectivity index CC50/EC50 (system: HIV-1-GFP)
Result: > 545

Task: What measured SI, selectivity index CC50/EC50 is associated with "Nc1nc(NC2CC2)c2ncn([C@H]3C=C[C@@H](CO)C3)c2n1" on HIV-1-GFP?
Result: > 6452

Task: Please state recorded SI, selectivity index CC50/EC50 (tested on HIV-1-GFP) of "Cc1nnc(C(=O)NC(C)(C)c2nc(C(=O)NCc3ccc(F)cc3)c(O)c(=O)n2C)o1"
Result: > 5405

Task: What reported SI, selectivity index CC50/EC50 corresponds to "Nc1nc2c(ncn2COCCO)c(=O)[nH]1" on HIV-1-GFP?
Result: > 304

Task: Which measured SI, selectivity index CC50/EC50 belongs to "Nc1nc(Cl)nc2c1ncn2[C@@H]1O[C@H](CO)[C@@H](O)[C@@H]1F" , tested on HIV-1-GFP?
Result: > 533

Task: Query the reported SI, selectivity index CC50/EC50 for HIV-1-GFP; item: "Cc1ccnc2c1NC(=O)c1cccnc1N2C1CC1"
Result: > 913
